Origin of the recorded values: paper PMC3050703

EXPERIMENT NOTES: Plasma pharmacokinetics in patients
Format: in vivo, human
ASSAY SETUP: human, plasma, intravenous
EXPERIMENTAL ENDPOINT: clearance

# STRUCTURE SMILES STRING, EXPERIMENTAL ENDPOINT, MEASURED VALUE
rows = [
    ("Cc1cc(Nc2cc(N3CCN(C)CC3)nc(Sc3ccc(NC(=O)C4CC4)cc3)n2)[nH]n1", "clearance", "900 to 2320 mL/min"),
]

* * *

EXPERIMENT NOTES: Plasma pharmacokinetics in patients
Assay type: in vivo, human
ASSAY SETUP: human, plasma, intravenous, 16 mg/m2

# STRUCTURE SMILES STRING, RESULT UNIT, clearance
data = [
    ("Cc1cc(Nc2cc(N3CCN(C)CC3)nc(Sc3ccc(NC(=O)C4CC4)cc3)n2)[nH]n1", "mL/min", 1690),
]
